- System: LNCaP-Vancouver prostate cells
- PROTOCOL SUMMARY: In vitro LNCaP Vancouver prostate cell proliferation assay in lipid reduced medium
- Type: cell-based
- CONDITION DETAILS: read-out: pIC50 LNCaP_Vancouver prostate cell (converted)
One threshold, 2000 nM, splits the recorded IC50 values: lower ones are 1.0, equal or higher ones are 0.0.

INSERT INTO assay_data (molecule, tgt, assigned_class) VALUES
  ('Cc1cc(-c2ccc3sccc3c2)ccc1C1=NC2(CC2)C(=O)N1CC1CN(C(=O)C2CC2)C1', 'LNCaP-Vancouver prostate cells', 1.0),
  ('Cn1cnc2cc(-c3ccc(C4=NC5(CC5)C(=O)N4CC4CN(C(=O)C5(O)CC5)C4)c(F)c3)ccc21', 'LNCaP-Vancouver prostate cells', 1.0),
  ('O=C(C1CC1)N1CC(CN2C(=O)C3(CC3)N=C2c2ccc(-c3ccc4cc(Cl)cnc4c3)cc2)C1', 'LNCaP-Vancouver prostate cells', 1.0),
  ('Cn1ncc2cc(-c3ccc(C4=NC5(CC5)C(=O)N4CC4CN(C(=O)C5(O)CC5)C4)c(Cl)c3)ccc21', 'LNCaP-Vancouver prostate cells', 1.0),
  ('Cc1oc2ccc(-c3ccc(C4=NC5(CC5)C(=O)N4C[C@@H]4CCN(C(=O)C5CC5)C4)c(F)c3)cc2c1C', 'LNCaP-Vancouver prostate cells', 1.0),
  ('Cc1cc2cc(-c3ccc(C4=NC5(CC5)C(=O)N4C[C@@H]4CCN(C(=O)C5CC5)C4)cc3)ccc2s1', 'LNCaP-Vancouver prostate cells', 1.0),
  ('N#Cc1ccc2ccc(-c3ccc(C4=NC5(CC5)C(=O)N4CC4CN(C(=O)C5CC5)C4)c(F)c3)cc2c1', 'LNCaP-Vancouver prostate cells', 0.0),
  ('C=CC(=O)N1CCC2(CC1)N=C(c1ccc(-c3ccc4ccoc4c3)cc1)N(C[C@@H]1CCN(C(=O)C3CC3)C1)C2=O', 'LNCaP-Vancouver prostate cells', 0.0),
  ('O=C(Nc1cccc(-c2ccc(C3=NC4(CC4)C(=O)N3CC3CN(C(=O)C4CC4)C3)c(F)c2)c1)C1CC1', 'LNCaP-Vancouver prostate cells', 0.0),
  ('Cc1cc(-c2ccc3ccc(Cl)nc3c2)ccc1C1=NC2(CC2)C(=O)N1CC1CN(C(=O)C2(C)CC2)C1', 'LNCaP-Vancouver prostate cells', 1.0),
  ('Cc1cc(C2=NC3(CC3)C(=O)N2C[C@@H]2CCN(C(=O)C3CC3)C2)ccc1-c1ccc2c(cnn2C)c1', 'LNCaP-Vancouver prostate cells', 0.0),
  ('COCCN1CCC2(CC1)N=C(c1ccc(-c3ccc4[nH]ccc4c3)cc1)N(C[C@@H]1CCN(C(=O)C3CC3)C1)C2=O', 'LNCaP-Vancouver prostate cells', 1.0),
  ('Cc1cc(-c2ccc3c(cnn3C)c2)ccc1C1=NC2(CC2)C(=O)N1CC1CN(C(=O)C2CCCO2)C1 (stereo in doubt) [compound 206]', 'LNCaP-Vancouver prostate cells', 1.0),
  ('CC(O)C(=O)N1CC[C@@H](CN2C(=O)C3(CCOCC3)N=C2c2ccc(-c3ccc4cccnc4c3)cc2)C1 (some centres unmarked)', 'LNCaP-Vancouver prostate cells', 0.0);

* * *

Items are presented alongside their recorded IC50.
- TGT: hFASN enzyme (full length) (Homo sapiens, UniProt P49327)
- Construct: 10 μL hFASN enzyme (full length, 300 ng, purified in house); made in house
- Sequence (P49327 whole entry): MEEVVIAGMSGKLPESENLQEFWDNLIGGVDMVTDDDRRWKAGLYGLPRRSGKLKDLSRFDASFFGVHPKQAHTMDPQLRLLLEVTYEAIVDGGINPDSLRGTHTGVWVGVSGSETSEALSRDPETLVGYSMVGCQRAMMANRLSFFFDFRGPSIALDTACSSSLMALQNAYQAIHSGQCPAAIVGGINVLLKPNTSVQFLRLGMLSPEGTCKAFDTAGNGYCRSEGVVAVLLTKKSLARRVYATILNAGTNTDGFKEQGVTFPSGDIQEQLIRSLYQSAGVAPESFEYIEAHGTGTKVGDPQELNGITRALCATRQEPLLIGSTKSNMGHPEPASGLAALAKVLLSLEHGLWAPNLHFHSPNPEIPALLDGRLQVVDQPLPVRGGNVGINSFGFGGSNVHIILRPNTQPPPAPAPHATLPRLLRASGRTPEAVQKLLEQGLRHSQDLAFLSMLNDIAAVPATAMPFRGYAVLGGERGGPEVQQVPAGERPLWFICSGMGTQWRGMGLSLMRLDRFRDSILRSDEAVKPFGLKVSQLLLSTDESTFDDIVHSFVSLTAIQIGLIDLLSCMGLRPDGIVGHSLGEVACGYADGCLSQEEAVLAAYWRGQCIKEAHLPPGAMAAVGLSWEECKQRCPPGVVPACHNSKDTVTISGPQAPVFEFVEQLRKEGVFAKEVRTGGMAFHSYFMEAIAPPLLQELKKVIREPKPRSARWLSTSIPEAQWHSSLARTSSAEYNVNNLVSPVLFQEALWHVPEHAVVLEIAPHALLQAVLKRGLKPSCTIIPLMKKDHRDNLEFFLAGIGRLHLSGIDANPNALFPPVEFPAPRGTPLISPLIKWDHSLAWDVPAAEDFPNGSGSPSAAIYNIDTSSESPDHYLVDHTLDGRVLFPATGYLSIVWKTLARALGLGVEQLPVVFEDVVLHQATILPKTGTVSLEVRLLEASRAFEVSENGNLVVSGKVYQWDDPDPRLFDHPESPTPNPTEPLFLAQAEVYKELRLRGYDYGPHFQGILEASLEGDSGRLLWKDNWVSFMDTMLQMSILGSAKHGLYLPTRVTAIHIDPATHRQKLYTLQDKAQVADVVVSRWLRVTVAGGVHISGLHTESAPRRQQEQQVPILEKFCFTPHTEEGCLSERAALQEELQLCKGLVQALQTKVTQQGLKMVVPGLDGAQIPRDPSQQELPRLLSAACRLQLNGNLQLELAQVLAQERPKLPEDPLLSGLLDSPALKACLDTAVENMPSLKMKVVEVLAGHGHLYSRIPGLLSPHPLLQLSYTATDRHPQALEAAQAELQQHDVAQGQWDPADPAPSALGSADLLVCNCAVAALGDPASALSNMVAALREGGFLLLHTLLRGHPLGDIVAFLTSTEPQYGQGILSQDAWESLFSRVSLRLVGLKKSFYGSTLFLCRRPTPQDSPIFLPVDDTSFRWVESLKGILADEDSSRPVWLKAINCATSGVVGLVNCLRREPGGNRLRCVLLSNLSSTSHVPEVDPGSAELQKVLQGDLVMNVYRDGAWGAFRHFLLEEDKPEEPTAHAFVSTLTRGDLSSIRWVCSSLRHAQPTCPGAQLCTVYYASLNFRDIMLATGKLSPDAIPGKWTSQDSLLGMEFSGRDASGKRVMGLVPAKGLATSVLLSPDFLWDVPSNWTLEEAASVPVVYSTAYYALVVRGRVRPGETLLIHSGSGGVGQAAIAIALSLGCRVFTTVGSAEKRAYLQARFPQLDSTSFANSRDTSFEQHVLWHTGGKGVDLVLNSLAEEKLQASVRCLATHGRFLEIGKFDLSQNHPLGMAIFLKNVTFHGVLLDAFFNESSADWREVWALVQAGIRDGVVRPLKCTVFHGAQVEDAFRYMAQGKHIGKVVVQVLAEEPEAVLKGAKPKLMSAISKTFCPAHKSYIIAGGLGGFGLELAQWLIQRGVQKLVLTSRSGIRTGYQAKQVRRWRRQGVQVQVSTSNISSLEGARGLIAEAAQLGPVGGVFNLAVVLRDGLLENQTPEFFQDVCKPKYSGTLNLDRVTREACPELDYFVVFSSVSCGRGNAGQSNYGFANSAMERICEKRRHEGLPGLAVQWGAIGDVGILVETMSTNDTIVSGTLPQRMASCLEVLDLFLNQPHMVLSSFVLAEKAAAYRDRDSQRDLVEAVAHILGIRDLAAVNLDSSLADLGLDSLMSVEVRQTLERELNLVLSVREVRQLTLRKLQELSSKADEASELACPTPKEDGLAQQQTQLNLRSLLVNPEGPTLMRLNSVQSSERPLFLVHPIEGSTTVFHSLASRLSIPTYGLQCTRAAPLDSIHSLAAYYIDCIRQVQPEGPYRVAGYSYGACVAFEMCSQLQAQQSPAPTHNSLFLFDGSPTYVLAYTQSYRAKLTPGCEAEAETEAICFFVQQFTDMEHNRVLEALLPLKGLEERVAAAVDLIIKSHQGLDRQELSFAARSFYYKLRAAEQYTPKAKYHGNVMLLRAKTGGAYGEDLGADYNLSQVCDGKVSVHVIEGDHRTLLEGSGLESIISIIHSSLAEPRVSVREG
- PROTOCOL SUMMARY: Fatty Acid Synthase (FASN) inhibition scintillation proximity assay
- Assay type: biochemical
- CONDITION DETAILS: read-out: Human FASN pIC50 (converted)
QUANTITY NAME: IC50 (nM)

INSERT INTO measurements (smiles_string, quantity_name, measure_unit, inequality_sign, test_value) VALUES
  ('Cc1oc2ccc(-c3ccc(C4=NC5(CC5)C(=O)N4C[C@@H]4CCN(C(=O)C5CC5)C4)cc3F)cc2c1C', 'IC50', 'nM', '=', 363),
  ('O=C(C1CC1)N1CC[C@@H](CN2C(=O)C3(CCNCC3)N=C2c2ccc(-c3ccc4cnccc4c3)cc2)C1', 'IC50', 'nM', '=', 112),
  ('O=C(C1CC1)N1CC[C@@H](CN2C(=O)C3(CC3)N=C2c2ccc(-c3nc4ccccc4[nH]3)cc2F)C1', 'IC50', 'nM', '=', 170),
  ('O=C(c1nccs1)N1CC(CN2C(=O)C3(CCOCC3)N=C2c2ccc(-c3ccc4occc4c3)cc2)C1', 'IC50', 'nM', '>', 10000),
  ('Cn1cc(-c2ccc(-c3ccc(C4=NC5(CCN(CCO)CC5)C(=O)N4CC4CN(C(=O)C5CC5)C4)cc3)cc2)cn1', 'IC50', 'nM', '=', 3980),
  ('N#CC1(c2ccc(-c3ccc(C4=NC5(CC5)C(=O)N4CC4CN(C(=O)C5CC5)C4)cc3)cn2)CC1', 'IC50', 'nM', '>', 10000),
  ('Cc1cc(-c2ccc3cc(Cl)ccc3c2)ccc1C1=NC2(CC2)C(=O)N1CC1CN(C(=O)C2(C)CC2)C1', 'IC50', 'nM', '=', 30.2),
  ('O=C(C1CC1)N1CC(CN2C(=O)C3(CC3)N=C2c2ccc(-c3ccc4nn(CCO)cc4c3)cc2)C1', 'IC50', 'nM', '=', 1780),
  ('Cc1cc2cc(-c3ccc(C4=NC5(CC5)C(=O)N4CC4CN(C(=O)C5CC5)C4)c(C)c3)ccc2o1', 'IC50', 'nM', '=', 97.7),
  ('Cc1cc(-c2ccc3cc(OC(C)C)ccc3c2)ccc1C1=NC2(CC2)C(=O)N1CC1CN(C(=O)C2(C)CC2)C1', 'IC50', 'nM', '=', 316),
  ('O=C(C1CC1)N1CC[C@@H](CN2C(=O)C3(CC3)N=C2c2ccc(-c3cccc4ncccc34)cc2F)C1', 'IC50', 'nM', '=', 49),
  ('N#Cc1cc2cc(-c3ccc(C4=NC5(CC5)C(=O)N4C[C@@H]4CCN(C(=O)C5CC5)C4)cc3F)ccc2o1', 'IC50', 'nM', '=', 224),
  ('Cc1cc2cc(-c3ccc(C4=NC5(CC5)C(=O)N4CC4CN(C(=O)C5CC5)C4)cc3)ccc2s1', 'IC50', 'nM', '=', 141);

Cited source for all entries: patent US10077261B2
